Tested on: OCI-LY10
Assay: OCI-LY10 viability, CTG
Format: cell-based
Conditions: Homo sapiens, OCI-Ly10; MYD88 MUT; read-out: OCI-LY10 CTG IC50
Reported IC50 values follow for various molecules
Numbers only here, please. The scale is nM.

Sample answers from the record:
| molecule | result_units | value_measured |
| --- | --- | --- |
| O=C1CCC(N2C(=O)c3cccc(NCCCOC4CCN(C[C@H]5CC[C@H](n6cc(NC(=O)c7cnn8ccc(N9CCOCC9)nc78)c(C(F)F)n6)CC5)CC4)c3C2=O)C(=O)N1 (stereo partly drawn) [I-208] | nM | 36 |
| CN(C[C@H]1CC[C@H](n2cc(NC(=O)c3coc(-c4ccnc(NCC5CC5)c4)n3)c(C(F)F)n2)CC1)C1CCN(Cc2cccc3c2n(C)c(=O)n3C2CCC(=O)NC2=O)CC1 (stereo partly drawn) [I-75] | nM | 11 |

Query molecule follows.
Record summary for CN(CCCOCCNc1cccc2c1C(=O)N(C1CCC(=O)NC1=O)C2=O)C[C@H]1CC[C@H](n2cc(NC(=O)c3coc(-c4ccnc(NCC5CC5)c4)n3)c(C(F)F)n2)CC1 (stereo partly drawn) [I-168] : reported IC50 = 31
